# Test system: MMTV promoter
# method: MMTV promoter/luciferase reporter assay (high-throughput screen I, control for specificity), M10 cells
# Type: cell-based, mouse
# measurement context: transcriptional inhibitors, Table 2; 6 h incubation
reported property: MMTV fold inhibition relative to solvent control (fold)
Write the number in fold without appending the unit.

In the examples that follow, each entry is paired with its recorded MMTV fold inhibition relative to solvent control.
NC(=O)c1ccccc1O [Chemical 798] : 0.68
c1ccc(-c2nccnc2-c2ccccn2)nc1 [Chemical 1641] : 0.60
CCCCCCCCCCCCCCCCBr [Chemical 2037] : 0.50
O=C(O[C@H](C(=O)O)[C@H](OC(=O)c1ccccc1)C(=O)O)c1ccccc1 [Chemical 578] : 0.91
O=C(c1ccc(O)c(O)c1)c1c(O)cc(O)cc1O [Chemical 660] : 1.04

QUERY: # query: MMTV fold inhibition relative to solvent control of entry C1CCNCC1 [Chemical 759]
RESULT: 0.95

QUERY: And for O=C(O)c1ccc(Br)o1 [Chemical 2035] ?
RESULT: 0.89

QUERY: And for O=S(=O)(O)c1ccc2c(N=Nc3ccc(S(=O)(=O)O)c4ccccc34)c(O)c(S(=O)(=O)O)cc2c1 [Chemical 512] ?
RESULT: 0.68

###

# Tested on: MMTV promoter
# method: MMTV promoter/luciferase reporter assay (high-throughput screen I, control for specificity), M10 cells
# Assay type: cell-based, mouse
# measurement context: transcriptional activators, Table 2; original high-throughput assay; 6 h incubation
reported property: MMTV fold induction relative to solvent control (fold)
Write the number in fold without appending the unit.

In the examples that follow, each entry is paired with its recorded MMTV fold induction relative to solvent control.
O=c1[nH]c(=O)n([C@H]2C[C@H](O)[C@@H](CO)O2)cc1Br : 0.98
N[C@@H](CCCCNC(=O)OCc1ccccc1)C(=O)O : 0.86
Nc1nc2nc[nH]c2c(=S)[nH]1 : 0.92
Clc1ccc(Sc2cc(Cl)c(Cl)cc2Cl)cc1 : 2.20

QUERY: # query: MMTV fold induction relative to solvent control of entry `O=C(O)c1[nH]c(=O)[nH]c(=O)c1I`
RESULT: 2.46

QUERY: And for `CC(=O)OCC(=O)[C@@]1(O)CC[C@H]2[C@@H]3CCC4=CC(=O)C=C[C@]4(C)[C@H]3[C@@H](O)C[C@@]21C` ?
RESULT: 2.66

QUERY: And for `COc1cc2oc(=O)cc(CBr)c2cc1OC` ?
RESULT: 2.53

QUERY: And for `Cc1cc(N)sn1` ?
RESULT: 1.13

QUERY: And for `Nc1ccc(C=CC(=O)O)cc1` ?
RESULT: 1.03

QUERY: And for `CC1(C)[C@@H](C(=O)OCC(F)(F)C(F)(F)C(F)(F)C(F)(F)C(F)(F)C(F)F)CC[C@@]1(C)C(=O)OCC(F)(F)C(F)(F)C(F)(F)C(F)(F)C(F)(F)C(F)F` ?
RESULT: 1.34

QUERY: And for `Cc1ccc(C(=O)c2ccccc2N)cc1` ?
RESULT: 2.43

QUERY: And for `CN(C)C(=S)SCC#N` ?
RESULT: 1.21

QUERY: And for `O=C(Nc1cccc(C2=NCCN2)c1)Nc1cccc(C2=NCCN2)c1` ?
RESULT: 1.27

QUERY: And for `CC(C)(C)c1ccc(Br)cc1` ?
RESULT: 1.12

Origin of measurements: patent US5846720A
